Data origin: patent US20200024330A1

# MEASURED_TARGET: HIV-1 JR-CSF Env H330A (HIV-1 isolate JR-CSF) (UniProt P20871)
# ASSAY_SUMMARY: cell-based or functional assay
As shown below, each of these binders has a reported Fold IC50 increase relative to wild-type value.

BINDER	QUALIFIER_OPERATOR	Fold IC50 increase relative to wild-type [fold]
PGT-126 (antibody, V domains shown) VH: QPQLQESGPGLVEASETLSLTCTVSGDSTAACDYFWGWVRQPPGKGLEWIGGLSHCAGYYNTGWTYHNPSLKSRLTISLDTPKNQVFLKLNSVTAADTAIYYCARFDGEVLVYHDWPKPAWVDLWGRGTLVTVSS VL: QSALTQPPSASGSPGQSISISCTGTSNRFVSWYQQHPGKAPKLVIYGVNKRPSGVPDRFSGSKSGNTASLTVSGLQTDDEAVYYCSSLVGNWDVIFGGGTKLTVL	=	0.5
PGT-127 (antibody, V domains shown) VH: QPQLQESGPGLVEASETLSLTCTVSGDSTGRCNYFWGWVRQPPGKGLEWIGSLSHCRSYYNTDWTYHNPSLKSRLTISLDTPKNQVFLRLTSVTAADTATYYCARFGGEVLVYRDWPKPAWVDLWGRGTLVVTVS VL: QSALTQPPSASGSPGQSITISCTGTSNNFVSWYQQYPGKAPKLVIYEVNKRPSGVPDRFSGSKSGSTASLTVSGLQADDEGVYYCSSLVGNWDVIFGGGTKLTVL	=	0.5
PGT-125 (antibody, V domains shown) VH: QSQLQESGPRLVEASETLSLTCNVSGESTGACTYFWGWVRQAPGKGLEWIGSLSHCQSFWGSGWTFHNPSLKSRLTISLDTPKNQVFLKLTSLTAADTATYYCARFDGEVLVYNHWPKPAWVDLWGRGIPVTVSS VL: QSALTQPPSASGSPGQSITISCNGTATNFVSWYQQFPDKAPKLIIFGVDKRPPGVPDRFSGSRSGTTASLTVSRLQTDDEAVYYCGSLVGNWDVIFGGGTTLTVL	=	0.7
PGT-135 (antibody, V domains shown) VH: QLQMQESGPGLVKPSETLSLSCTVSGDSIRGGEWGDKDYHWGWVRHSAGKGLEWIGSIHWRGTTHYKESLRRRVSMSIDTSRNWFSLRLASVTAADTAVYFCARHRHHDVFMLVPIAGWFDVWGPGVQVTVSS VL: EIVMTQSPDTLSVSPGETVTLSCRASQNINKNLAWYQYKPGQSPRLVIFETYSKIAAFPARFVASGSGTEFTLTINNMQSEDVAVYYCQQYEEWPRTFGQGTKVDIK	>	250
PGT-130 (antibody, V domains shown) VH: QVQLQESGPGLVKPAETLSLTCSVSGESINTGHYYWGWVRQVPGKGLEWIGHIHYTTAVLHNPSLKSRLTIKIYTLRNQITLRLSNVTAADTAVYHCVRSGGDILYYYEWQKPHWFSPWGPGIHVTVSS VL: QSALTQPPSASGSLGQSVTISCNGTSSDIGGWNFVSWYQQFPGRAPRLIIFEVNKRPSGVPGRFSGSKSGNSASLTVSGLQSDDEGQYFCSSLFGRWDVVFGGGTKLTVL	=	0.9
PGT-131 (antibody, V domains shown) VH: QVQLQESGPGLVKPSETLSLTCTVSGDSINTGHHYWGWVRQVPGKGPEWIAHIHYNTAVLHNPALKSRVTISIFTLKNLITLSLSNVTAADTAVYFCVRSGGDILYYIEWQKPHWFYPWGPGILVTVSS VL: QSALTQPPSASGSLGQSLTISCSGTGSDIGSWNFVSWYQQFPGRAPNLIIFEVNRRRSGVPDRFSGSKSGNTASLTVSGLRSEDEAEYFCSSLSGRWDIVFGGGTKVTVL	=	0.5
PGT-128 (antibody, V domains shown) VH: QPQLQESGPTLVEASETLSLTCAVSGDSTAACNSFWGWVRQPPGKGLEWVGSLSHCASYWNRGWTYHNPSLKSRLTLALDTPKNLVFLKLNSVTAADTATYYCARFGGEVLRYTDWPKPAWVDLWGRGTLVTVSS VL: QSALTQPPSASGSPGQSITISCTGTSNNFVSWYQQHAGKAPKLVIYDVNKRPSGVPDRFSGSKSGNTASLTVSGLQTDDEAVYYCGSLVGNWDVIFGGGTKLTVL	=	0.3
PGT-123 (antibody, V domains shown) VH: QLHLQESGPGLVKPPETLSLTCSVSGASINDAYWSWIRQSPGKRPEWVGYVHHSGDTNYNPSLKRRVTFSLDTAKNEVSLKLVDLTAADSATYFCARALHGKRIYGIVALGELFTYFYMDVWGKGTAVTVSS VL: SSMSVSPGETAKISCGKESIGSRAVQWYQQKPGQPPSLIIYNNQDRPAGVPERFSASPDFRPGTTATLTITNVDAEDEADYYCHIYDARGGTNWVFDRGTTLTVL	=	0.3
